Where do these numbers come from? They come from PubChem BioAssay AID256.

- System: CD2F1 mice, L1210 leukemia ip, survival T/C
- assay-overview: NCI In Vivo Anticancer Drug Screen. Data for tumor model L1210 Leukemia (intraperitoneal) in CD2F1 (CDF1) mice
- cond: endpoint: mean survival time; dose: 25.0 mg/kg/injection; schedule: Q01DX009 (ip); vehicle: water; higher = longer survival
Toxic doses and inconclusive results are not listed.
# T/C values compiled below

A selection of reference data follows.
- molecule: "COc1ccc([N+]2=Cc3cc(OC)c(OC)cc3CC2)cc1OC"
  T/C: "94 % of control"
- molecule: "O=C1Cc2cc3c(cc2C=C2CCCN12)OCO3"
  T/C: "103 % of control"

Given item `CCOC(=O)C(NCc1ccccc1)C(=O)OCC` , the value recorded as its T/C is 98 % of control

Given item COc1cc2c(cc1OC)C(OC)N(C)c1c-2ccc2cc3c(cc12)OCO3 (stereo not given) , the value recorded as its T/C is 121 % of control

Given item `O=C(CCl)N1c2ccccc2Sc2ccccc21` , the value recorded as its T/C is 93 % of control
